Reference source: the supplement of paper PMC5908809

# Test system: normal primary NK cells, pool 2 (3 donors) (IL-2 2.5 ng/mL)
# METHOD SUMMARY: drug sensitivity score (DSS) (DSS units); higher = more sensitive; extreme values may be limits of the assay
# EXPERIMENTAL PARAMETERS: 72 h
ENDPOINT: drug sensitivity score
Write no unit; give the number alone.

Guide cases for drug sensitivity score, answers given:
1. Cn1cc(-c2ccc3nnc(C(F)(F)c4ccc5ncccc5c4)n3n2)cn1 (max concentration tested 10000 nM)
0
2. Cc1ccc(-c2cc(C(F)(F)F)nn2-c2ccc(S(N)(=O)=O)cc2)cc1 [Celecoxib] (max concentration tested 10000 nM)
0.61
3. CCc1cc2c(cc1N1CCC(N3CCOCC3)CC1)C(C)(C)c1[nH]c3cc(C#N)ccc3c1C2=O [Alectinib] (max concentration tested 1000 nM)
0
4. Nc1cc(C(F)(F)F)c(-c2cc(N3CCOCC3)nc(N3CCOCC3)n2)cn1 [Buparlisib] (max concentration tested 10000 nM)
1.72

Task item: Given CC[C@H](NC(=O)[C@H](C)NC)C(=O)N1C[C@@H](O)C[C@H]1Cc1c(-c2[nH]c3cc(F)ccc3c2C[C@@H]2C[C@H](O)CN2C(=O)[C@H](CC)NC(=O)[C@H](C)NC)[nH]c2cc(F)ccc12 [Birinapant] (max concentration tested 1000 nM) , state its recorded drug sensitivity score.
Reply: 3.2
